Test: Reversed-phase TLC on RP-2 silanized plates (Rf)
Type: physicochemical
Settings: silica gel 60 RP-2 F254 silanized; water:methanol:acetonitrile 60:20:20, ammonium acetate pH 7.4
Quantity Measured: RP (Rf from RP-2 TLC plate)
The reply should be a number, written without any unit.

Please review the entries below; each comes with its answer.
COc1ccc(CCN2CCC(Nc3nc4ccccc4n3Cc3ccc(F)cc3)CC2)cc1 [astemizol] | 0.65
CN1CCN=C(c2ccccc2)c2cc(Cl)ccc21 [medazepam] | 0.66

Returns the measured RP (Rf from RP-2 TLC plate) for the input compound. Input: O=C(O)c1cn(C2CC2)c2cc(N3CCNCC3)c(F)cc2c1=O [ciprofloxacin]
0.38

Returns the measured RP (Rf from RP-2 TLC plate) for the input compound. Input: CC[C@H]1OC(=O)[C@H](C)[C@@H](O[C@H]2C[C@@](C)(OC)[C@@H](O)[C@H](C)O2)[C@H](C)[C@@H](O[C@@H]2O[C@H](C)C[C@H](N(C)C)[C@H]2O)[C@](C)(OC)C[C@@H](C)C(=O)[C@H](C)[C@@H](O)[C@]1(C)O [clarithromycin]
0.83

Returns the measured RP (Rf from RP-2 TLC plate) for the input compound. Input: O=C(CCCN1CCC(O)(c2ccc(Cl)cc2)CC1)c1ccc(F)cc1 [haloperidol]
0.61

Returns the measured RP (Rf from RP-2 TLC plate) for the input compound. Input: CNCCc1ccccn1 [betahistine]
0.31

Returns the measured RP (Rf from RP-2 TLC plate) for the input compound. Input: CCOC(=O)[C@H](CCc1ccccc1)N[C@@H](C)C(=O)N1Cc2ccccc2C[C@H]1C(=O)O [quinapril]
0.57

Returns the measured RP (Rf from RP-2 TLC plate) for the input compound. Input: CC(N)C12CC3CC(CC(C3)C1)C2 (centres unmarked) [rimantadine]
0.95
